# assay-target: Voltage-gated inwardly rectifying potassium channel KCNH2 (Homo sapiens) (UniProt Q12809)
# Sequence (Q12809 whole entry, looked up): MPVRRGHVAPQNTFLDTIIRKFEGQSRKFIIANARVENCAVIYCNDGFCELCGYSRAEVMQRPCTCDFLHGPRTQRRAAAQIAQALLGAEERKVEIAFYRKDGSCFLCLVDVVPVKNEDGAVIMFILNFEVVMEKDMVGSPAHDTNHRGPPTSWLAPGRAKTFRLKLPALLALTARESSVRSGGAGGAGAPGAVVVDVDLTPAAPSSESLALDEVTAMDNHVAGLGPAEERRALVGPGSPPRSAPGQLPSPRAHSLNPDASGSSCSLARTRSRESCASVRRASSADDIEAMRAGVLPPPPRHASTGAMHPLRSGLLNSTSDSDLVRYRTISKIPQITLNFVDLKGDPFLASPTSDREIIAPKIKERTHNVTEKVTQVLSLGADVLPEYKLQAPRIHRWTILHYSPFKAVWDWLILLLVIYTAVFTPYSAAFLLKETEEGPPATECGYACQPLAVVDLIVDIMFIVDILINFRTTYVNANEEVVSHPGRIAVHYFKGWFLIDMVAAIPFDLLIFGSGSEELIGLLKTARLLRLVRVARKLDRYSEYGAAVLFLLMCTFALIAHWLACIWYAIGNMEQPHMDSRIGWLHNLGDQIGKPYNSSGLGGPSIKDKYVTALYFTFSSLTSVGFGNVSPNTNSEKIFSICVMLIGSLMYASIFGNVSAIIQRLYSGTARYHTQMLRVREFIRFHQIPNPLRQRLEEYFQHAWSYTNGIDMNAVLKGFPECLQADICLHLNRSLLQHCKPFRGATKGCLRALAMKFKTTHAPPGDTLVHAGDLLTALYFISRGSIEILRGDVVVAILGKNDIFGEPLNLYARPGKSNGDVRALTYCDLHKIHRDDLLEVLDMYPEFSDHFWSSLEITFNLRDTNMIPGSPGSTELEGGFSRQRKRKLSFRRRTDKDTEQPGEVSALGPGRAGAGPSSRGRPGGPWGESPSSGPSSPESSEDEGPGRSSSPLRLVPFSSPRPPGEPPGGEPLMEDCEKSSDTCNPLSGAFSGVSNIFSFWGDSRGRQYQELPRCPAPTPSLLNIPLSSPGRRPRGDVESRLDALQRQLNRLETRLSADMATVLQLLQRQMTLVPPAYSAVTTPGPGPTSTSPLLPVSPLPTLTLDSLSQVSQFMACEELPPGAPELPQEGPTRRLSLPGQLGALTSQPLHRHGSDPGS
# experiment-description: Human Ether-a-go-go-Related Gene (hERG) channel small molecule antagonists: fluorescence cell-based qHTS assay (AID 1671200); also: nearly all actives have a fitted effect of over 50% in size
# measurement-context: hERG-U2OS cells, FluxOR thallium flux fluorescence; series mostly up to 76.8 µM
Records with an inconclusive call do not appear. Active and inactive are the calls of the source. Calls follow the shape of the dose curve; as a rule, active = well fitted inhibition curve with a large enough effect in the repeat runs; inconclusive = weak or mixed curves; inactive = flat fitted curve, though single readings scatter.
Outcomes: yes (1) (active), no (0) (inactive)

compound | label-class
CCN(CC)C(=O)N1CCN(C)CC1 | no (0)
COC(CC(C)CCCC(C)(C)O)OC (stereo not drawn) | no (0)
CC(C)c1ccc(C#N)cc1 | no (0)
CC(=O)OCCC1CCCCC1 | no (0)
COc1cc(C(C)=O)ccc1OCCCN1CCC(c2noc3cc(F)ccc23)CC1 | yes (1)
CC(=O)OCC(C)C | no (0)
CN(C)CC/C=C1\c2ccccc2Sc2ccc(Cl)cc21 | yes (1)
COc1cc(NS(=O)(=O)c2ccc(N)cc2)nc(C)n1 | no (0)

====

# assay-target: Nuclear receptor subfamily 1 group I member 3 (Homo sapiens) (UniProt Q14994)
# Sequence (Q14994 whole entry, looked up): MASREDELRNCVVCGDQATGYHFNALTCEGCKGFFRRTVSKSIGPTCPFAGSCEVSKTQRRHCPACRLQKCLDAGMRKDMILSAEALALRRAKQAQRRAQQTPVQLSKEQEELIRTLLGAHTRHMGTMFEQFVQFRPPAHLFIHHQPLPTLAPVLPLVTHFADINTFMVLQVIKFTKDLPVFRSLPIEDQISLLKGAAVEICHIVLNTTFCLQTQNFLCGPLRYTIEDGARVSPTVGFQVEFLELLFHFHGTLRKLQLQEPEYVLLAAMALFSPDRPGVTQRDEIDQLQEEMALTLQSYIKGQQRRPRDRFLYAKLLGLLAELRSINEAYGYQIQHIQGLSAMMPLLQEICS
# experiment-description: qHTS assay to identify small molecule agonists of the constitutive androstane receptor (CAR) signaling pathway (AID 1224839); also: nearly all actives have a fitted effect of over 15% in size;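 as to activation: HepG2 cells stably carrying human CAR and a CYP2B6 luciferase reporter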
# measurement-context: HepG2 hCAR CYP2B6-luciferase, agonist mode, 24 h; series mostly up to 92.4 µM
# Description: National Center for Advancing Translational Sciences [NCATS] NIH Chemical Genomics Center [NCGC] U.S. Environmental Protection Agency [EPA] National Institutes of Environmental Health Sciences [NIEHS] National Toxicology Program [NTP] […] Assay Protocol Summary: A double-stable (hCAR and CYP2B6-2.2kb) transfected cell line, derived from human hepatoma (HepG2) cells, was utilized for the duration of the quantitative high-throughput screens. […]
Records with an inconclusive call do not appear. Activity calls are given as the source filed them. The call rests on the fitted dose curve; in most records, active means well fitted activation curve with a large enough effect in the repeat runs; inconclusive means weak or mixed curves; inactive means no such curve, though single readings can be large or run the other way.
Labels: 1 for active, 0 for inactive

compound | label-class
Nc1nc2ccc(OC(F)(F)F)cc2s1 | 1
O=C(O)CNC(=O)c1ccccc1I | 0
CCSC(=O)N(CC)CC | 0
CC(=O)OC(C)C[N+](C)(C)C (configuration not stated) | 0
O=C1c2ccccc2C(=O)c2c(O)ccc(O)c21 | 1
O=c1[nH]c2cc(C(F)(F)F)c(N3CCOCC3)cc2n(CP(=O)(O)O)c1=O | 0
CCCCCCCCCCCCCC(=O)OCC(O)CO (configuration not stated) | 0
Cc1cc(CCC(=O)OCCOCCOCCOC(=O)CCc2cc(C)c(O)c(C(C)(C)C)c2)cc(C(C)(C)C)c1O | 0
O=[N+]([O-])C1(Br)COCOC1 | 0
CC1=CC[C@@]23C[C@@H]1C(C)(C)[C@@H]2CC[C@H]3C | 0
O=C(CCS)OCC(COC(=O)CCS)(COC(=O)CCS)COC(=O)CCS | 0
CC(=O)OCCC(C)CC(C)(C)C (configuration not stated) | 0

====

# experiment-description: qHTS RealTime-Glo MT Cell Viability Assay in HEK293 cells - 24 hour (AID 1224886); also: nearly all actives have a fitted effect of over 50% in size
# measurement-context: RealTime-Glo luminescence; series mostly up to 76.8 µM
Records with an inconclusive call do not appear. Activity calls are given as the source filed them. The call rests on the fitted dose curve; in most records, active means well fitted cell-killing curve with a large enough effect in the repeat runs; inconclusive means weak or mixed curves, or effect the other way; inactive means flat fitted curve, though single readings scatter.
Labels: True for active, False for inactive

molecule | label-class
C[C@@H]1[C@H](O)[C@@H](C)/C=C/C=C\C=C\C=C\C=C\C=C\C=C\[C@H](O[C@@H]2O[C@H](C)[C@@H](O)[C@H](N)[C@@H]2O)C[C@@H]2O[C@](O)(C[C@@H](O)C[C@@H](O)[C@H](O)CC[C@@H](O)C[C@@H](O)CC(=O)O[C@H]1C)C[C@H](O)[C@H]2C(=O)O (stereo in doubt) | False
O=C(O)c1cccc(Oc2ccccc2)c1 | False
CCCCCCOC(=O)CCCCC | False
CC1CCc2nccnc21 (stereo not given) | False
CCCCCCC(O)CCCCCCCCCCC(=O)OC (stereo not given) | False
Cc1ccc(N(CC2=NCCN2)c2cccc(O)c2)cc1 | False
CC(C)N(C)C | False
CC(=O)C(C)=O | False
CCCCCCCC(=O)Oc1c(Br)cc(C#N)cc1Br | True
CC(C)(C(=O)c1cccnc1)c1cccnc1 | False
CCc1ccc(C)cc1 | False
CCC(=O)OCc1ccc(OC)cc1 | False
CCOC(=O)c1ccc(NC(=O)CN2CCCCC2)cc1 | False
Nc1ccc(F)cc1 | False
FC(F)(F)C(F)(F)C(F)(F)C(F)(F)CCI | False

====

# experiment-description: qHTS assay to identify small molecule agonists of the TGF-beta/Smad signaling pathway - cell viability counter screen (AID 1346829); also: top concentration of the series differs between compounds; nearly all actives have a fitted effect of over 45% in size
# measurement-context: SBE-bla HEK293T viability, CellTiter-Glo luminescence, 5 h; series mostly up to 76.8 µM
Inconclusive results are not listed. Activity calls are given as the source filed them. The call rests on the fitted dose curve; in most records, active means well fitted cell-killing curve with a large enough effect in the repeat runs; inconclusive means weak or mixed curves, or effect the other way; inactive means flat fitted curve, though single readings scatter.
measurement-label: activity change, negative = cytotoxicity

molecule | result
O=CNNC=O | inactive
CC/C=C\C/C=C\C/C=C\CCCCCCCC(=O)OCC | inactive
C1CCCCC1 | inactive
C=CC(=O)O | inactive
COc1ccc(N)c([N+](=O)[O-])c1 | inactive
O=C1CC[C@@H](C(=O)O)N1 | inactive
CC(C)C1CCC(C(=O)N[C@H](Cc2ccccc2)C(=O)O)CC1 (some centres not stated) | inactive
CCCCCCCCCCCCCCCCCC(=O)OCC(CC)CCCC (configuration not stated) | inactive
CC(C)Cc1ccc(CC(=O)O)cc1 | inactive
CCC(=O)OCc1ccc(OC)cc1 | inactive
C=CC(=O)NC(C)C | inactive
COc1cc(S(=O)(=O)Nc2ccccc2)c(OC)cc1N | inactive
CC(C)(C)S | inactive
CNC1CCCN(c2c(F)cc3c(=O)c(C(=O)O)cn(C4CC4)c3c2OC)C1 (configuration not stated) | inactive
CC[C@H]1OC(=O)[C@H](C)[C@@H](O[C@H]2C[C@@](C)(OC)[C@@H](O)[C@H](C)O2)[C@H](C)[C@@H](O[C@@H]2O[C@H](C)C[C@H](N(C)C)[C@H]2O)[C@](C)(O)C[C@@H](C)/C(=N\OCOCCOC)[C@H](C)[C@@H](O)[C@]1(C)O | inactive
CC(C)(C)NCC(O)COc1cccc2c1C[C@H](O)[C@H](O)C2 (some centres not stated) | inactive
CCCCCCCCCCCCCCCC(=O)OCC | inactive
CC(C)OC(=O)c1ccccc1C(=O)OC(C)C | inactive
O=C(O)c1ccc(O)cc1O | inactive
Cc1ccccc1S(N)(=O)=O | inactive
CCCOC(=O)c1c(Cl)c(Cl)c(Cl)c(Cl)c1C(=O)OCCC | inactive
CCOCCC(=O)OCC | inactive
Nc1nc(-c2ccc([N+](=O)[O-])cc2)cs1 | inactive
CC12CC3CC(C)(C1)CC(N)(C3)C2 | inactive
O=C(O)c1cccc(Oc2ccccc2)c1 | inactive
Nc1ccc(F)cc1 | inactive
COC(=O)CC(C(C)=O)C(=O)OC (configuration not stated) | inactive

====

# assay-target: Peroxisome proliferator-activated receptor gamma (Homo sapiens) (UniProt P37231)
# Sequence (P37231 whole entry, looked up): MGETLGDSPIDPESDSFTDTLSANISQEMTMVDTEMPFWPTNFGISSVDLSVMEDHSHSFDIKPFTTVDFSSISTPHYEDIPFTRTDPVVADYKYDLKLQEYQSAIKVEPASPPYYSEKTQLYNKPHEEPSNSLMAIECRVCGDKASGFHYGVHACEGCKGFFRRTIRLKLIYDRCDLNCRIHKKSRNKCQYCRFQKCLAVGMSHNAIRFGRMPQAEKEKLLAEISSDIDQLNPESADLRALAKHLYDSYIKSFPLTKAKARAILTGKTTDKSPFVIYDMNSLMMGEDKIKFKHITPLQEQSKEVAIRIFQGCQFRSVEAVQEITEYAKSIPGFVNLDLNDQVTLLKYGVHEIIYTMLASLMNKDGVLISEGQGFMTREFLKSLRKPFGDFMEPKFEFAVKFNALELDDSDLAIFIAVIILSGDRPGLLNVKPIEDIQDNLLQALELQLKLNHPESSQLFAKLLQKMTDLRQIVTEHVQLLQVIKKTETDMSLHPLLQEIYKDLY
# experiment-description: qHTS assay to identify small molecule antagonists of the peroxisome proliferator-activated receptor gamma (PPARg) signaling pathway (AID 743191); also: nearly all actives have a fitted effect of over 30% in size
# measurement-context: HEK293H PPARg-UAS-bla, beta-lactamase ratio, antagonist, 17 h; series mostly up to 62.6 µM
Results filed as inconclusive are left out. Calls of active or inactive are those of the source. The call rests on the fitted dose curve.
Outcomes: class 1 (active), class 0 (inactive)

molecule | label-class
COc1ccc(/C=C/C(=O)c2ccc(OC)cc2OC)cc1 | class 1
Cc1cc(CCCOc2c(C)cc(-c3noc(C(F)(F)F)n3)cc2C)on1 | class 0
NC(=O)CCCCC(N)=O | class 0
C=CCOC(=O)COCCC(C)C | class 0
CS(=O)(=O)c1ccc([C@@H](C[C@H]2CCC(=O)C2)C(=O)Nc2cnccn2)cc1Cl | class 0
FC(F)(F)C(F)(F)C(F)(F)C(F)(F)CCI | class 0
COc1ccc(C(=O)NCc2ccc(OCCN(C)C)cc2)cc1OC | class 0
CCN(CC)CCOC(=O)C(c1ccccc1)c1ccccc1 | class 0
Oc1cccc2[nH]ccc12 | class 0
CCCCCCCCCCCCCCCCCC(=O)OCC(CC)CCCC (configuration not stated) | class 0
CC(C)(O)c1coc(S(=O)(=O)NC(=O)Nc2c3c(cc4c2CCC4)CCC3)c1 | class 0
CCCCCCCC/C=C\CCCCCCCC(=O)OCCO | class 0
C[C@@H]1C[C@H]2[C@@H]3CCC4=CC(=O)C=C[C@]4(C)[C@@]3(F)[C@@H](O)C[C@]2(C)[C@@]1(O)C(=O)COP(=O)(O)O | class 0
CCCCCCCCCCCCCCN(C)C | class 0
COc1ccc(C)cc1 | class 0
C=Cc1ccc(OC(C)=O)cc1 | class 0
CC(C)COC(=O)c1ccc(O)cc1 | class 0
CC(C)c1ccc(C(=O)N=C(N)N)cc1S(C)(=O)=O | class 0
C/C(C=O)=C\c1ccccc1 | class 0
CCCCOCCOC(=O)c1cccnc1 | class 0
O=NN(CCCl)C(=O)NCCCl | class 0
CC(C)c1ccc(C#N)cc1 | class 0
Nc1ccc(S(=O)(=O)NCc2ccccc2)cc1 | class 0
CNCc1ccc(NC(=O)c2c[nH]c3c2C(=O)CCC3)cc1 | class 0
SCCc1cnccn1 | class 0
COC(=O)c1sccc1S(N)(=O)=O | class 0
COc1ccc(C2C(=O)c3ccccc3C2=O)cc1 | class 0
